Molecular target: T1, recombinant human IL-17A-mFc protein (human, UniProt Q16552 24-155, Biotinylated before the blocking assays of Examples 9 and 12 (sites not given); disulfide-linked dimer through IL-17A and the Fc.)
T1 construct: also called recombinant fusion protein IL-17A-mFc
T1 sequence: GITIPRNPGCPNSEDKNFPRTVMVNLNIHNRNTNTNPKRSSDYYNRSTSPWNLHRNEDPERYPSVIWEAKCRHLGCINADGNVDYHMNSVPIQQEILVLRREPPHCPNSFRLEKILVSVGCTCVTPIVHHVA
Assay: ELISA, human IL-17A-mFc coated (method of Example 8)
REPORTED ENDPOINT: EC50 (ng/mL)
Provide the reading as a plain figure in ng/mL.

{"BINDER": "humanized antibody hu44 (antibody, human IgG4 S228P, kappa, V domains shown) VH: QIQLVQSGAEVKKPGASVKISCKASGYIFTNYGMNWMRQAPGQGLEWMGWINDHTGEPTYADKFQGRVTFTLDTSASTAYMELSRLRSDDTAVYYCANYGFGYFDYWGQGTLVTVSS VL: DVVMTQSPLSLPVTLGQPASISCRSSQSLVHSNGNSYLHWYLQKPGQSPQLLIYKVSNRFSGVPDRFSGSGSGTDFTLKISRVEAEDVGVYFCSQSTHVPYTFGQGTKLEIKR", "REPORTED ENDPOINT": "EC50", "QUANTITATIVE READOUT": 6.76}
{"BINDER": "humanized antibody hu250 (antibody, human IgG4 S228P, kappa, V domains shown) VH: QVQLQESGPGLVKPSETLSLTCTVSGYSITSDYAWSWIRQPPGKGLEWIGFISYSGPTSYNPSLKSRVTISRDTSKNQFFLQLKSVTAADTAVYYCARGGDGDSFDYWGQGTTVTVSS VL: DVVMTQTPLSLSVTPGQPASISCKSSQSIVHSNGNTYLDWYLQKPGQSPKLLIYKVSNRFSGVPDRFSGSGSGTDFTLKISRVEAEDVGVYYCFQGSHFPTFGGGTKVEIKR", "REPORTED ENDPOINT": "EC50", "QUANTITATIVE READOUT": 6.35}

Let us move to another entry and its EC50.
Returns the measured EC50 for the input binder. Input: humanized antibody hu43 (antibody, human IgG4 S228P, kappa, V domains shown) VH: QIQLVQSGAEVKKPGASVKISCKASGYIFTNYGMNWMRQAPGQGLEWMGWINDHTGEPTYADKFQGRVTFTLDTSASTAYMELSRLRSDDTAVYYCANYGFGYFDYWGQGTLVTVSS VL: DVVMTQSPLSLPVTLGQPASISCRSSQSLVHSNGNSYLHWYLQKPGQSPQLLIYKVSNRFSGVPDRFSGSGSGTDFTLKISRVEAEDVGVYYCSQSTHVPYTFGQGTKLEIKR
8.64
